Assay details: Half life in Sprague-Dawley rat at 10 mg/kg, po via gavage for 2 hrs by UHPLC analysis
Format: ADME, organism-based
Protocol conditions: in vivo
Measured endpoint: half-life (h)
Please reply with the bare figure in h and do not write the unit itself.

What measured half-life goes with C[C@]12CC[C@@H]3c4ccc(B(O)O)cc4C[C@@H](CCCCCCCCC[S+]([O-])CCCC(F)(F)C(F)(F)F)[C@H]3[C@@H]1CC[C@@H]2O (stereo partly specified) [ZB-716] ?
17

====

Test system: MCF7
Assay details: Antiproliferative activity against human MCF7 cells assessed as inhibition of cell growth incubated for 48 hrs by MTT assay
Format: functional, cell-based
Protocol conditions: MCF7, 48 h
Measured endpoint: pIC50
Remember the convention: pIC50 equals -log10 of concentration in molar.

What measured pIC50 goes with O=C(/C=C\c1ccc(-c2nc(-c3ccc(O)cc3)nc(-c3ccc(O)cc3)n2)cc1)NCCCO ?
5.50
